// provenance: patent US20170273985A1

measuredOn: PDE1B (Homo sapiens, UniProt Q01064)
protocolNotes: In vitro HTRF PDE1 inhibition assay (PDE1B)
Type: biochemical
protocolConditions: Table 22
Excerpt: An exemplary procedure for the in vitro Homogenous Time Resolved Fluorescence assay, which can be used to determine the inhibitory action of compounds of the invention toward PDE1 or its isoforms, follows. The HTRF PDE1 assay utilized the HTRF (Homogenous Time Resolved Fluorescence) technology, which is based on the competition between unlabeled cyclic nucleotide and cyclic nucleotide labeled with XL665 for the binding to cyclic nucleotide-specific antibody labeled with cryptate. […]
testReadout: IC50

Solved entries:
[[record]]
molecule = "CC(C)c1ncc2c(=O)n3c(nn12)N(CCc1cccc(C#N)c1)CCC3"
measuredon = "PDE1B (Homo sapiens, UniProt Q01064)"
testreadout = "IC50"
result = "< 1000 nM"

[[record]]
molecule = "CC(C)c1ncc2c(=O)n3c(nn12)N(CCCc1ccncc1)CCC3"
measuredon = "PDE1B (Homo sapiens, UniProt Q01064)"
testreadout = "IC50"
result = "< 1000 nM"

[[record]]
molecule = "CC(C)c1ncc2c(=O)n3c(nn12)N(CCC1CCNCC1)CCC3"
measuredon = "PDE1B (Homo sapiens, UniProt Q01064)"
testreadout = "IC50"
result = "1000 to 10000 nM"

[[record]]
molecule = "CC(C)c1ncc2c(=O)n3c(nn12)N(Cc1cccc(Cl)c1)CCC3"
measuredon = "PDE1B (Homo sapiens, UniProt Q01064)"
testreadout = "IC50"
result = "< 1000 nM"


Exercise: What is its IC50 for PDE1B (Homo sapiens, UniProt Q01064)? Entry: COc1ccc(C2Cn3c(nn4c(C5CCOCC5)ncc4c3=O)N2C)cc1 (centres unmarked) [Example 87]
Solution: 1000 to 10000 nM
